conditions: buffer; pH 7.4; 200.0 µM
MEASURED_METRIC: solubility kinetic (µg/mL)
Give the value, in units of µg/mL, as a plain number.

// fetch solubility kinetic given entry Cl.OC(CN1CCOCC1)Cn1c2c(c3ccccc31)CCCC2 (stereo unspecified) 51.3

Identify solubility kinetic associated with the compound Cc1cccc(C(=O)N2CCCC(c3nc(-c4ccc(F)cc4)no3)C2)c1 (stereo unspecified) 12.4

Let me know recorded solubility kinetic for Cc1ccc(NC(=S)c2ccncc2)c(C)c1 , thanks. 34.2

---

details: buffer; pH 7.4; 200.0 µM
Lab note: compare solubility kinetic against 2 µg/mL. Equal or greater, write Met. Smaller, write Not met.

solubility kinetic >= 2 µg/mL for CN(C(=O)Nc1cnc2ccccc2c1)c1ccccc1 ? Met

Record Cc1ccc(C)n1-c1ccc(C#N)cn1 ; criterion: solubility kinetic no lower than 2 µg/mL. Met? Met

In plain terms: is recorded solubility kinetic at least 2 µg/mL for COc1ccc(NC(=O)c2ccc(NC(=O)c3ccncc3)cc2)cc1 ? Not met

Would you say Cc1cc(Oc2ncccc2[N+](=O)[O-])c2cc(Cl)ccc2n1 shows solubility kinetic at minimum 2 µg/mL? Not met

Hello, I need to know if CSc1ccccc1C(=O)NCCCn1ccnc1 has measured solubility kinetic not below 2 µg/mL. Thanks! Met

Does the compound COc1ccc(/C(N)=N/OC(=O)c2cccs2)cc1 have recorded solubility kinetic that is 2 µg/mL or more? Met

Would you say CCOC(=O)c1c(NC(=O)COC(=O)c2cnccn2)sc(C)c1C shows solubility kinetic at minimum 2 µg/mL? Met

Entry O=C(CN1C(=O)C(=O)c2ccccc21)c1ccc(Cl)cc1 : is its solubility kinetic no less than 2 µg/mL? Not met

Answer whether solubility kinetic of CCN1C(=O)CSC1=Nc1ccc(C(=O)O)cc1 is greater than or equal to 2 µg/mL. Met

API: above_or_equal(metric=solubility kinetic, cutoff=2 µg/mL) for item COc1ccc(/C=C/c2noc(-c3ccccc3OC(C)=O)n2)cc1 Not met

Evaluate O=C1/C(=C/c2ccccc2)SC(=S)N1C1CCS(=O)(=O)C1 (configuration not stated) : solubility kinetic at minimum 2 µg/mL? Not met

Determine whether this compound has solubility kinetic no lower than 2 µg/mL: CCOCC(=O)Nc1cc(C)on1 Met

---

conditions: buffer; pH 7.4; 200.0 µM
MEASURED_METRIC: solubility kinetic

Report measured solubility kinetic; entry is COc1ccccc1CC(=O)N1CCN(c2ccccc2)CC1 > 0.0466 mg/mL

// fetch solubility kinetic given entry Cc1onc(-c2ccccc2)c1C(=O)O/N=C(\N)c1ccc([N+](=O)[O-])o1 0.0116 mg/mL

Quick one: give measured solubility kinetic for CCCc1cc(C(=O)Nc2cc(OC)ccc2OC)cs1 0.0086 mg/mL

Note solubility kinetic for the compound shown: O=c1nc(SCc2cccc(C(F)(F)F)c2)nc2ccccn12 0.007 mg/mL

Query solubility kinetic for CCCCN(C)S(=O)(=O)c1cc2c3c(c1)CCC(=O)N3CCC2 0.0486 mg/mL

Give me measured solubility kinetic, please, for this compound: CCN(CC(=O)NCc1ccccn1)S(=O)(=O)c1ccc(OC)cc1 > 0.0545 mg/mL

---

Please respond with reported solubility kinetic for every item in the list.
conditions: buffer; pH 7.4; 200.0 µM
Express the result in µg/mL but write the number alone.

For the compound O=C(COC(=O)c1ccc(F)c(S(=O)(=O)N2CCOCC2)c1)NCCc1ccc(F)cc1 , give its measured solubility kinetic value. 17.5

Note down solubility kinetic recorded for Cc1ccc(NC(=O)c2c(-c3ccccc3Cl)noc2C)nc1 0.3

Specify solubility kinetic for O=C(C[n+]1ccc(/C=N/O)cc1)NC(=O)Nc1ccccc1 and stop. 41.6

Determine its reported solubility kinetic: O=C(c1ccccc1)C1CCN(c2ncccc2[N+](=O)[O-])CC1 10.8

Return value of solubility kinetic for input CC1CCN(C(=O)c2ccc(NC(=O)c3cccs3)cc2)CC1 , no commentary. 44.7

Find the measured solubility kinetic of CCN1CCN(Cc2cc3c(cc2[N+](=O)[O-])OCO3)CC1 and report it. 41.1

Tell me solubility kinetic reported for COc1ccc(C(=O)CSc2nc3ncccc3[nH]2)cc1OC 13.4

Please supply the value of reported solubility kinetic for the item CN1C(=O)C(CCC(N)=O)NC1=S (centres undefined) 29.1

Fill in solubility kinetic for record O=C(CN1C(=O)NC2(CCCc3ccccc32)C1=O)c1ccccc1F (centres undefined) 10.4

Output measured solubility kinetic for this item: CCc1ccc(C2C(C#N)=C(N)Oc3cc(N)ccc32)cc1 (centres undefined) 2.4

Hello, please tell me recorded solubility kinetic for this one: CC(C)(C)c1ccc(C(=O)NC2CCN(Cc3ccccc3)CC2)cc1 36.5

---

Provide the recorded solubility kinetic for the entries that follow.
conditions: buffer; pH 7.4; 200.0 µM
State the answer as a number, implicitly in µg/mL.

Assign solubility kinetic to the following record: Cc1cnc(NC(=O)c2ccncc2)s1 30.2

Supply recorded solubility kinetic for Cc1nc2oc3ccc(F)cc3c(=O)c2cc1C(=O)O here. 40.8

Output measured solubility kinetic for this item: CC(=O)Nc1ccc(NC(=O)C(C)OC(=O)CCSc2ccccc2Cl)cc1 (stereo unspecified) 10.2

Recall and state the measured solubility kinetic for Cc1[nH]c2ccccc2c1C(=O)COC(=O)c1ccccc1O . 4.6

Assign solubility kinetic to the following record: Cc1csc2nc(NC(=O)c3ccccc3)sc(=O)c12 0.9

Please supply the value of reported solubility kinetic for the item COc1cc(CCC(=O)NCC2CCCO2)cc(OC)c1OC (stereo unspecified) 44

State its solubility kinetic for this compound: CCc1nc(Nc2ccc(O)cc2)c2oc3ccccc3c2n1.Cl 1.2

Answer with the recorded solubility kinetic of Cc1cccc(N2CC(C(=O)Nc3nccs3)CC2=O)c1C (stereo unspecified) only. 42

Please give measured solubility kinetic of the following entry: O=C(Nc1ccc2c(c1)OCCO2)C(=O)NC1CC1 30.8

Let me know recorded solubility kinetic for O=C(COc1ccc2ccccc2c1)Nc1nccs1 , thanks. 3.9

Give reported solubility kinetic value for CCOc1ccc(NC(=O)CCC(=O)c2ccc(F)cc2)cc1 2.5

Provide only the value of recorded solubility kinetic for CCOC(=O)Cc1cnc(NC(=O)CSc2nc(N)cc(=O)[nH]2)s1 12.6

Return value of solubility kinetic for input Cc1ccccc1NC(=S)Nc1cccc2cnccc12 , no commentary. 34.2

Supply reported solubility kinetic belonging to this compound: CC(C)(C)c1ccc(SCCc2ccccn2)cc1 1.1

Quote solubility kinetic reported for N#C/C(=C\c1ccc2c(c1)OCO2)C(=O)NCc1ccco1 please. 0.6

Supply measured solubility kinetic of O=S(=O)(c1ccc(Cl)cc1)N1CCN(c2ncccn2)CC1 in your reply. 0.9

// Input: CCOC(=O)C1CCN(C(=O)CCC2CCCC2)CC1 . Output its solubility kinetic only. 37.6

Specify reported solubility kinetic for the compound shown: CCOC(=O)c1sc(=NC(=O)c2ccc(Cl)s2)n(C)c1C 0.5

Output measured solubility kinetic for this item: Cc1cc2c(SCC(=O)NC3CCCC3)ncnc2s1 30.2

Return solubility kinetic (reported value) for this compound: Cc1ccc2nc(NC(=O)C3CC3C)sc2c1 (stereo unspecified) 2.4

Indicate its recorded solubility kinetic; the compound in question is Cl.Cn1sccc1=O 18.4

Report solubility kinetic for CC(C)[C@H](NC(N)=O)C(=O)Nc1ccc(OCc2ccccc2)cc1 3

Identify measured solubility kinetic corresponding to CC(=O)c1cccc(NC(=O)c2cc(=O)[nH]c3ccccc23)c1 12.5

---

conditions: buffer; pH 7.4; 200.0 µM
I'd appreciate it if you could supply solubility kinetic values for the items below.

Please list solubility kinetic recorded for the compound O=C(Nc1cccc([N+](=O)[O-])c1)N1CCc2ccccc2C1 28.6 µg/mL

Give the value of solubility kinetic reported for the following: O=C(NNC(=O)c1ccccc1C(=O)O)c1cc2ccccc2o1 > 48.6 µg/mL

In one line, give reported solubility kinetic of the entry CCCNC(=O)c1ccccc1NC(=O)C1=CSCCO1 . > 46 µg/mL

Given the compound CN(CC(=O)Nc1ccc(F)cc1)CC(=O)N1CCCC1 , write its reported solubility kinetic. 43 µg/mL

Query solubility kinetic for CC(C)C(NCC(=O)Nc1ccccc1C(=O)NC1CC1)c1ccccc1 (stereo unspecified) > 54.8 µg/mL

Identify measured solubility kinetic corresponding to COc1ccccc1CCNS(=O)(=O)c1cn(C)c(=O)n(C)c1=O > 53 µg/mL

---

Assignment: determine reported solubility kinetic for the given compounds.
conditions: buffer; pH 7.4; 200.0 µM

Could you please provide reported solubility kinetic for Nc1cccc(-c2cnc3ccccc3n2)c1 ? Thanks! > 33.2 µg/mL

Please look at this compound and report its solubility kinetic: O=Cc1c(-c2ccccc2)nc2ccccn12 > 33.3 µg/mL

Specify measured solubility kinetic for Cc1cc([N+](=O)[O-])nn1CC(=O)N(C)C1CCCCC1 . > 42 µg/mL

In one line, give reported solubility kinetic of the entry Cc1ccc(S(=O)(=O)NCc2ccc3c(c2)OCO3)cc1C . 5 µg/mL

Consider the compound CCOC(=O)c1sc(NC(=O)C2CC(=O)N(c3ccc(C)cc3)C2)nc1C (stereo unspecified) and give its recorded solubility kinetic. 13 µg/mL

Provide one value: measured solubility kinetic of Cc1ccc(Cn2c(N3CCN(C)CC3)nc3c2c(=O)[nH]c(=O)n3C)cc1 > 55.3 µg/mL

Indicate its recorded solubility kinetic; the compound in question is COc1cc(S(=O)(=O)Nc2ccc3c(c2)C(=O)N(C)C3=O)ccc1NC(C)=O > 60.5 µg/mL

Supply reported solubility kinetic belonging to this compound: O=C(COC(=O)CNC(=O)c1cccc(OC(F)F)c1)NCc1ccc2c(c1)OCO2 22 µg/mL

Identify measured solubility kinetic corresponding to Cc1ccccc1NC(=O)Nc1ccccn1 0.7 µg/mL

Read the entry COC(=O)c1sc(NC(=O)c2c(-c3ccccc3)noc2C)nc1C and write its reported solubility kinetic. 0.8 µg/mL

State its solubility kinetic: Cc1nn(CC(=O)NCc2cccnc2)c(C)c1[N+](=O)[O-] > 43.4 µg/mL

Data provenance is PubChem BioAssay AID1996.
